Molecular target: 14-3-3γ (Homo sapiens)
Construct: made in house; host or cells: E. coli NiCo21 (DE3)
Sequence (P61981 whole entry): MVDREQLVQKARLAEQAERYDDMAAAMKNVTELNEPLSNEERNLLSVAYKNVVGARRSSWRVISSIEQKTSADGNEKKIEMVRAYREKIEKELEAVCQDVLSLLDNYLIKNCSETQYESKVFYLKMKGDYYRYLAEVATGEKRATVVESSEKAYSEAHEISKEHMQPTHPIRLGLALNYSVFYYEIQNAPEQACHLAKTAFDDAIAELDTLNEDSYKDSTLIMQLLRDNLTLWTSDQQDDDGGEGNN
Experiment: Isothermal titration calorimetry (ITC) of 14-3-3 binding to peptide
Settings: Table S6 (unit as in Table S5); ITC, 25 °C; run 1
Where a SMILES comes first, the peptide text is derived from it. [ ]: non-standard residue; d: D form. ξ: configuration not given here. Phe(4-NO2) = N[C@@H](Cc1ccc([N+](=O)[O-])cc1)C(=O)O; ξAla(4-thiazolyl) = NC(Cc1cscn1)C(=O)O; pS = N[C@@H](COP(=O)(O)O)C(=O)O; β3hS = N[C@@H](CO)CC(=O)O; Nva = CCC[C@H](N)C(=O)O; βAla = NCCC(=O)O
# maps each entry to its Kd

>  <compound>
CCC[C@H](NC(=O)[C@H](N)CCCCN)C(=O)N[C@@H](Cc1ccc([N+](=O)[O-])cc1)C(=O)NC(Cc1cscn1)C(=O)N[C@@H](COP(=O)(O)O)C(=O)N[C@@H](Cc1ccccc1)C(=O)N[C@@H](CO)CC(=O)NCCC(=O)N[C@@H](Cc1ccc([N+](=O)[O-])cc1)C(=O)N[C@@H](CCCCN)C(N)=O (stereo partly drawn) [4b] (H-[dK][Nva][Phe(4-NO2)][ξAla(4-thiazolyl)][pS]F[β3hS][βAla][Phe(4-NO2)]K-NH2; N-terminus and C-terminus assumed)

>  <Kd>
2,62E-08 M

$$$$
>  <compound>
CCC[C@H](NC(=O)[C@H](N)CCCCN)C(=O)N[C@@H](Cc1ccc([N+](=O)[O-])cc1)C(=O)NC(Cc1cscn1)C(=O)N[C@@H](COP(=O)(O)O)C(=O)N[C@@H](Cc1ccc([N+](=O)[O-])cc1)C(=O)N[C@@H](CO)CC(=O)NCCC(=O)N[C@@H](Cc1ccc(O)cc1)C(=O)N[C@@H](CCCCN)C(N)=O (stereo partly drawn) [5a] (H-[dK][Nva][Phe(4-NO2)][ξAla(4-thiazolyl)][pS][Phe(4-NO2)][β3hS][βAla]YK-NH2; N-terminus and C-terminus assumed)

>  <Kd>
1,55E-06 M

$$$$
>  <compound>
CCC[C@H](NC(=O)[C@H](N)CCCCN)C(=O)N[C@@H](Cc1ccc([N+](=O)[O-])cc1)C(=O)NC(Cc1cscn1)C(=O)N[C@@H](COP(=O)(O)O)C(=O)N[C@@H](Cc1ccc([N+](=O)[O-])cc1)C(=O)N[C@@H](CO)CC(=O)NCCC(=O)N[C@@H](Cc1ccccc1)C(=O)N[C@@H](CCCCN)C(N)=O (stereo partly drawn) [5b] (H-[dK][Nva][Phe(4-NO2)][ξAla(4-thiazolyl)][pS][Phe(4-NO2)][β3hS][βAla]FK-NH2; N-terminus and C-terminus assumed)

>  <Kd>
1,06E-06 M

$$$$
>  <compound>
CCC[C@H](NC(=O)[C@H](N)CCCCN)C(=O)N[C@@H](Cc1ccc([N+](=O)[O-])cc1)C(=O)NC(Cc1cscn1)C(=O)N[C@@H](COP(=O)(O)O)C(=O)N[C@@H](C)C(=O)N[C@@H](CO)CC(=O)NCCC(=O)N[C@@H](Cc1ccc([N+](=O)[O-])cc1)C(=O)N[C@@H](CCCCN)C(N)=O (stereo partly drawn) [4c] (H-[dK][Nva][Phe(4-NO2)][ξAla(4-thiazolyl)][pS]A[β3hS][βAla][Phe(4-NO2)]K-NH2; N-terminus and C-terminus assumed)

>  <Kd>
6,72E-07 M

$$$$
>  <compound>
CCC[C@H](NC(=O)[C@H](N)CCCCN)C(=O)N[C@@H](Cc1ccc([N+](=O)[O-])cc1)C(=O)N[C@@H](C)C(=O)N[C@@H](COP(=O)(O)O)C(=O)N[C@@H](Cc1ccc([N+](=O)[O-])cc1)C(=O)N[C@@H](CO)CC(=O)NCCC(=O)N[C@@H](Cc1ccc([N+](=O)[O-])cc1)C(=O)N[C@@H](CCCCN)C(N)=O [3a] (H-[dK][Nva][Phe(4-NO2)]A[pS][Phe(4-NO2)][β3hS][βAla][Phe(4-NO2)]K-NH2; N-terminus and C-terminus assumed)

>  <Kd>
8,86E-08 M

$$$$

Consider the record given below.
# input State, in one line, measured Kd of CCC[C@H](NC(=O)[C@H](N)CCCCN)C(=O)N[C@@H](Cc1ccc([N+](=O)[O-])cc1)C(=O)NC(Cc1cscn1)C(=O)N[C@@H](COP(=O)(O)O)C(=O)N[C@@H](Cc1ccc(O)cc1)C(=O)N[C@@H](CO)CC(=O)NCCC(=O)N[C@@H](Cc1ccc([N+](=O)[O-])cc1)C(=O)N[C@@H](CCCCN)C(N)=O (stereo partly drawn) [4a] (H-[dK][Nva][Phe(4-NO2)][ξAla(4-thiazolyl)][pS]Y[β3hS][βAla][Phe(4-NO2)]K-NH2; N-terminus and C-terminus assumed)
# output 1,26E-07 M

====

# maps each entry to its ΔΔG to 1
Target: 14-3-3γ (Homo sapiens)
Construct: made in house; host or cells: E. coli NiCo21 (DE3)
Experiment: Isothermal titration calorimetry (ITC) of 14-3-3 binding to peptide
Conditions: Table S5; ΔG minus ΔG of peptide 1, ITC; second unlabelled line (replicate 2)
Where a SMILES comes first, the peptide text is derived from it. [ ]: non-standard residue; d: D form. ξ: configuration not given here. Phe(4-NO2) = N[C@@H](Cc1ccc([N+](=O)[O-])cc1)C(=O)O; ξAla(4-thiazolyl) = NC(Cc1cscn1)C(=O)O; pS = N[C@@H](COP(=O)(O)O)C(=O)O; β3hS = N[C@@H](CO)CC(=O)O; Nva = CCC[C@H](N)C(=O)O; βAla = NCCC(=O)O
Please state the figure in kcal/mol; there is no need to write the unit.

Here's what some known entries look like.
>  <molecule>
CCC[C@H](NC(=O)[C@H](N)CCCCN)C(=O)N[C@@H](Cc1ccc([N+](=O)[O-])cc1)C(=O)NC(Cc1cscn1)C(=O)N[C@@H](COP(=O)(O)O)C(=O)N[C@@H](Cc1ccc([N+](=O)[O-])cc1)C(=O)N[C@@H](CO)CC(=O)NCCC(=O)N[C@@H](Cc1ccccc1)C(=O)N[C@@H](CCCCN)C(N)=O (stereo partly drawn) [5b] (H-[dK][Nva][Phe(4-NO2)][ξAla(4-thiazolyl)][pS][Phe(4-NO2)][β3hS][βAla]FK-NH2; N-terminus and C-terminus assumed)

>  <test_result>
2.2

$$$$
>  <molecule>
CCC[C@H](NC(=O)[C@H](N)CCCCN)C(=O)N[C@@H](Cc1ccc([N+](=O)[O-])cc1)C(=O)NC(Cc1cscn1)C(=O)N[C@@H](COP(=O)(O)O)C(=O)N[C@@H](Cc1ccc([N+](=O)[O-])cc1)C(=O)N[C@@H](CO)CC(=O)NCCC(=O)N[C@@H](Cc1ccc(O)cc1)C(=O)N[C@@H](CCCCN)C(N)=O (stereo partly drawn) [5a] (H-[dK][Nva][Phe(4-NO2)][ξAla(4-thiazolyl)][pS][Phe(4-NO2)][β3hS][βAla]YK-NH2; N-terminus and C-terminus assumed)

>  <test_result>
2.4

$$$$

Consider the record given below.
# input Param request: ΔΔG to 1 | system 14-3-3γ (Homo sapiens) | item CCC[C@H](NC(=O)[C@H](N)CCCCN)C(=O)N[C@@H](Cc1ccc([N+](=O)[O-])cc1)C(=O)N[C@@H](C)C(=O)N[C@@H](COP(=O)(O)O)C(=O)N[C@@H](Cc1ccc([N+](=O)[O-])cc1)C(=O)N[C@@H](CO)CC(=O)NCCC(=O)N[C@@H](Cc1ccc([N+](=O)[O-])cc1)C(=O)N[C@@H](CCCCN)C(N)=O [3a] (H-[dK][Nva][Phe(4-NO2)]A[pS][Phe(4-NO2)][β3hS][βAla][Phe(4-NO2)]K-NH2; N-terminus and C-terminus assumed)
# output 0.3

====

Target: 14-3-3γ (Homo sapiens)
Construct: made in house; host or cells: E. coli NiCo21 (DE3)
Experiment: Isothermal titration calorimetry (ITC) of 14-3-3 binding to peptide
Conditions: Table S6; ITC, 25 °C; average of two runs
Where a SMILES comes first, the peptide text is derived from it. [ ]: non-standard residue; d: D form. ξ: configuration not given here. Phe(4-NO2) = N[C@@H](Cc1ccc([N+](=O)[O-])cc1)C(=O)O; ξAla(4-thiazolyl) = NC(Cc1cscn1)C(=O)O; pS = N[C@@H](COP(=O)(O)O)C(=O)O; β3hS = N[C@@H](CO)CC(=O)O; Nva = CCC[C@H](N)C(=O)O; βAla = NCCC(=O)O
recorded_endpoint: -TΔS

>  <compound>
CCC[C@H](NC(=O)[C@H](N)CCCCN)C(=O)N[C@@H](Cc1ccc([N+](=O)[O-])cc1)C(=O)NC(Cc1cscn1)C(=O)N[C@@H](COP(=O)(O)O)C(=O)N[C@@H](Cc1ccc([N+](=O)[O-])cc1)C(=O)N[C@@H](CO)CC(=O)NCCC(=O)N[C@@H](Cc1ccc(O)cc1)C(=O)N[C@@H](CCCCN)C(N)=O (stereo partly drawn) [5a] (H-[dK][Nva][Phe(4-NO2)][ξAla(4-thiazolyl)][pS][Phe(4-NO2)][β3hS][βAla]YK-NH2; N-terminus and C-terminus assumed)

>  <target>
14-3-3γ (Homo sapiens)

>  <-TΔS>
-2,57 kcal mol^-1

$$$$
>  <compound>
CCC[C@H](NC(=O)[C@H](N)CCCCN)C(=O)N[C@@H](Cc1ccc([N+](=O)[O-])cc1)C(=O)N[C@@H](C)C(=O)N[C@@H](COP(=O)(O)O)C(=O)N[C@@H](Cc1ccc([N+](=O)[O-])cc1)C(=O)N[C@@H](CO)CC(=O)NCCC(=O)N[C@@H](Cc1ccc([N+](=O)[O-])cc1)C(=O)N[C@@H](CCCCN)C(N)=O [3a] (H-[dK][Nva][Phe(4-NO2)]A[pS][Phe(4-NO2)][β3hS][βAla][Phe(4-NO2)]K-NH2; N-terminus and C-terminus assumed)

>  <target>
14-3-3γ (Homo sapiens)

>  <-TΔS>
-2,29 kcal mol^-1

$$$$
>  <compound>
CCC[C@H](NC(=O)[C@H](N)CCCCN)C(=O)N[C@@H](Cc1ccc([N+](=O)[O-])cc1)C(=O)NC(Cc1cscn1)C(=O)N[C@@H](COP(=O)(O)O)C(=O)N[C@@H](Cc1ccc(O)cc1)C(=O)N[C@@H](CO)CC(=O)NCCC(=O)N[C@@H](Cc1ccc([N+](=O)[O-])cc1)C(=O)N[C@@H](CCCCN)C(N)=O (stereo partly drawn) [4a] (H-[dK][Nva][Phe(4-NO2)][ξAla(4-thiazolyl)][pS]Y[β3hS][βAla][Phe(4-NO2)]K-NH2; N-terminus and C-terminus assumed)

>  <target>
14-3-3γ (Homo sapiens)

>  <-TΔS>
-2,99 kcal mol^-1

$$$$
>  <compound>
CCC[C@H](NC(=O)[C@H](N)CCCCN)C(=O)N[C@@H](Cc1ccc([N+](=O)[O-])cc1)C(=O)NC(Cc1cscn1)C(=O)N[C@@H](COP(=O)(O)O)C(=O)N[C@@H](Cc1ccc([N+](=O)[O-])cc1)C(=O)N[C@@H](CO)CC(=O)NCCC(=O)N[C@@H](Cc1ccccc1)C(=O)N[C@@H](CCCCN)C(N)=O (stereo partly drawn) [5b] (H-[dK][Nva][Phe(4-NO2)][ξAla(4-thiazolyl)][pS][Phe(4-NO2)][β3hS][βAla]FK-NH2; N-terminus and C-terminus assumed)

>  <target>
14-3-3γ (Homo sapiens)

>  <-TΔS>
-3,16 kcal mol^-1

$$$$

Consider the record given below.
# input State, in one line, measured -TΔS of CCC[C@H](NC(=O)[C@H](N)CCCCN)C(=O)N[C@@H](Cc1ccc([N+](=O)[O-])cc1)C(=O)NC(Cc1cscn1)C(=O)N[C@@H](COP(=O)(O)O)C(=O)N[C@@H](Cc1ccccc1)C(=O)N[C@@H](CO)CC(=O)NCCC(=O)N[C@@H](Cc1ccc([N+](=O)[O-])cc1)C(=O)N[C@@H](CCCCN)C(N)=O (stereo partly drawn) [4b] (H-[dK][Nva][Phe(4-NO2)][ξAla(4-thiazolyl)][pS]F[β3hS][βAla][Phe(4-NO2)]K-NH2; N-terminus and C-terminus assumed)
# output -2,87 kcal mol^-1
